The reported numbers originate from patent US20210032365A1.

Molecular target: T1, human C1s (human, UniProt P09871 16-688)
T1 construct: also called hC1s; serum-derived human C1s (CompTech)
T1 sequence: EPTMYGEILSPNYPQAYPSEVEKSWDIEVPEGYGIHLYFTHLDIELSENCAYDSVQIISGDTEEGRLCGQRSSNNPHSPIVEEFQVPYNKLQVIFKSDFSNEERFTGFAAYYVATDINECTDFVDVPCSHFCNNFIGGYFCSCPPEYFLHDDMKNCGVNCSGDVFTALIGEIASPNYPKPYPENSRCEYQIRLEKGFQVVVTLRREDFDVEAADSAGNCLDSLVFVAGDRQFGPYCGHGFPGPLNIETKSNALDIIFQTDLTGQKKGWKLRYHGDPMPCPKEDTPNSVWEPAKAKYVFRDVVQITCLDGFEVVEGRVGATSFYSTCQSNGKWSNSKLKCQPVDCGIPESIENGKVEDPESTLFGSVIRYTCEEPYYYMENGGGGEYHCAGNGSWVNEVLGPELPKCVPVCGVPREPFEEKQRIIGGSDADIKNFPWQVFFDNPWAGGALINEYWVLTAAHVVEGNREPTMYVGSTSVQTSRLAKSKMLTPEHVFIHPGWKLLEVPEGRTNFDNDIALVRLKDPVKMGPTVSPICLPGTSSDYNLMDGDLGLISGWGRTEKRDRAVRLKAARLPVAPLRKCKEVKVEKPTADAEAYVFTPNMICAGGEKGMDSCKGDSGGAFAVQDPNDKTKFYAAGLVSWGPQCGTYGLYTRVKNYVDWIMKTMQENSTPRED
Assay: SPR, Ab captured; pH 7.4, 1.2 mM Ca
RESULT_TYPE: koff (s⁻¹)
Hi! Could you send only the number? It should be in s⁻¹, unit omitted.

# BINDER, RESULT_TYPE, MEASURE_UNIT, OBSERVED_RESULT
records = [
    ("C1_IPN92H0026-SG4GK/IPN93L0029-SK1 (antibody, human IgG4 S228P, kappa, name in Kabat numbering, V domains shown, also called IPN92H0026/IPN93L0029) VH: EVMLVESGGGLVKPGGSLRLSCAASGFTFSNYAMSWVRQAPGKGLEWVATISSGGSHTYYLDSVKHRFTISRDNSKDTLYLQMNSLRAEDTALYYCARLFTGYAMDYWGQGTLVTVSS VL: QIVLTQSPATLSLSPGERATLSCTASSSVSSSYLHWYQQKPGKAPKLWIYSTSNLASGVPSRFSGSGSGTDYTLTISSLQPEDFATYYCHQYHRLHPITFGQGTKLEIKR", "koff", "s⁻¹", 0.00457),
    ("C1_IPN009VH2-SG4GK/IPN93L0029-SK1 (antibody, human IgG4 S228P, kappa, name in Kabat numbering, V domains shown, also called IPN009VH2/IPN93L0029) VH: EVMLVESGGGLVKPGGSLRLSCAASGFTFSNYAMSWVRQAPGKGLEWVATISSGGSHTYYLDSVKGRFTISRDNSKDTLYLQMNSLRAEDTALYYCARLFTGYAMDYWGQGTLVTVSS VL: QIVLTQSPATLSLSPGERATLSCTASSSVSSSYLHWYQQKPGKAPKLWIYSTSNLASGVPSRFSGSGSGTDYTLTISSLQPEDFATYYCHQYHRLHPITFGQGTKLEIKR", "koff", "s⁻¹", 0.00897),
    ("C1_IPN92H0038-SG4GK/IPN93L0030-SK1 (antibody, human IgG4 S228P, kappa, name in Kabat numbering, V domains shown, also called IPN92H0038/IPN93L0030) VH: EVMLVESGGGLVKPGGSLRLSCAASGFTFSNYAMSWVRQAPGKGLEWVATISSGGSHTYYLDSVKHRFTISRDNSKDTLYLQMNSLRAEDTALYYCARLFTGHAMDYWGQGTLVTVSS VL: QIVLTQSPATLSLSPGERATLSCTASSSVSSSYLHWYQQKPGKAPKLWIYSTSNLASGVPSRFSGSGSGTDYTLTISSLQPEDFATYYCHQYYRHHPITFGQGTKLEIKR", "koff", "s⁻¹", 0.0111),
    ("C1_IPN92H0038-SG4GK/IPN93L0023-SK1 (antibody, human IgG4 S228P, kappa, name in Kabat numbering, V domains shown, also called IPN92H0038/IPN93L0023) VH: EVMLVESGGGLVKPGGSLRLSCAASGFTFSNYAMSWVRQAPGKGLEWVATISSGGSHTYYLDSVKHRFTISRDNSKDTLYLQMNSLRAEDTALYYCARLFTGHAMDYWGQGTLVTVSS VL: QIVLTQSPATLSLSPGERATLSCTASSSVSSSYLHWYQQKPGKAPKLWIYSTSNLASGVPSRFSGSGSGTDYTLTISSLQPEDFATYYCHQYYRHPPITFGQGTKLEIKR", "koff", "s⁻¹", 0.000808),
]

Continue with the binder presented below.
*Q* Requested read-out: koff. Entry: C1_IPN92H0033-SG4GK/IPN93L0021-SK1 (antibody, human IgG4 S228P, kappa, name in Kabat numbering, V domains shown, also called IPN92H0033/IPN93L0021) VH: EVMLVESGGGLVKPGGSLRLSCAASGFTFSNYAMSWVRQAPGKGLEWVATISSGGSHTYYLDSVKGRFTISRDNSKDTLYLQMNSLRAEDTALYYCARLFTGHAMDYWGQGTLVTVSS VL: QIVLTQSPATLSLSPGERATLSCTASSSVSSSYLHWYQQKPGKAPKLWIYSTSNLASGVPSRFSGSGSGTDYTLTISSLQPEDFATYYCHQYHRLPPITFGQGTKLEIKR
*A* 0.000672
